Can you tell me Kd for the items I'm about to list?
Molecular target: FLT3 Autoinh. (Homo sapiens, UniProt P36888)
Construct: purchased DiscoverX (KINOMEscan); host or cells: E. coli (T7 phage) or HEK-293
Sequence (P36888 564-993 limits assumed): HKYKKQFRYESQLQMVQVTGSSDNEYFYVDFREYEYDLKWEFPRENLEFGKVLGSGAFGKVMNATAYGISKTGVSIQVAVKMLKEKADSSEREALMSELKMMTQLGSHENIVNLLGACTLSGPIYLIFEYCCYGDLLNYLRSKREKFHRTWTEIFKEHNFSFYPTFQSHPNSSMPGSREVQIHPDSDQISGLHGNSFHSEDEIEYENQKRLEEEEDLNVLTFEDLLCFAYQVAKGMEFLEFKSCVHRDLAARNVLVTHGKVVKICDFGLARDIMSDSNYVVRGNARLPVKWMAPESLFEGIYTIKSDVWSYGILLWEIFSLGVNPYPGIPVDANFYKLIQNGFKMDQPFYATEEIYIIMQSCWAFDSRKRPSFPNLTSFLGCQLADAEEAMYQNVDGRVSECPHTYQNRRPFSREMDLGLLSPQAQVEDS
Assay: DiscoverX KINOMEscan competition binding assay, FLT3 Autoinh.
Please respond with the number in µM and leave the unit unwritten.

## Task What does the record list as Kd for "COc1cc2ncc(-c3cccc(N[C@@H]4CCNC4)n3)n2nc1C1CC1" ?
## Result 0.013

## Task Kd lookup needed for "COc1cc2ncc(-c3cccc(N[C@H]4CNCC[C@@H]4F)n3)n2nc1C1CC1" , thanks.
## Result 0.017

## Task Field request: Kd | item: "COc1cc2ncc(-c3cccc(N[C@H]4CNC[C@@H]4F)n3)n2nc1C1CC1"
## Result 0.011

====

Exercise: for every item that follows, state its recorded IC50.
Target: IRAK4 (Homo sapiens)
Test: RBC HotSpot Kinase Assay, IRAK4
Type: biochemical
Parameters: purchased Reaction Biology (RBC HotSpot Kinase Assay)
Quick note: give the figure in nM, leave out the unit.

## Task Reported IC50 for c1cc(NC2CCC3(CNC3)C2)nc(-c2cnc3ccc(-c4cnn(C5CCOCC5)c4)nn23)c1 (stereo not shown) : what is it?
## Result 4080

## Task Which value of IC50 has been reported for "Cn1cc(-c2ccc3ncc(-c4cccc(NC5CC6(CNC6)C5)n4)n3n2)cn1" in the records?
## Result 126

## Task Given "c1cc(N[C@@H]2CCCNC2)nc(-c2cnc3ccc(-c4cnn(C5CC5)c4)nn23)c1" , state its recorded IC50.
## Result 9

## Task What value of measured IC50 is listed for "COc1cc2ncc(-c3cccc(N[C@H]4CNC[C@@H]4C)n3)n2nc1C1CC1" ?
## Result 2

====

Biological target: IRAK4 (Homo sapiens, UniProt Q9NWZ3)
Sequence (Q9NWZ3 1-460): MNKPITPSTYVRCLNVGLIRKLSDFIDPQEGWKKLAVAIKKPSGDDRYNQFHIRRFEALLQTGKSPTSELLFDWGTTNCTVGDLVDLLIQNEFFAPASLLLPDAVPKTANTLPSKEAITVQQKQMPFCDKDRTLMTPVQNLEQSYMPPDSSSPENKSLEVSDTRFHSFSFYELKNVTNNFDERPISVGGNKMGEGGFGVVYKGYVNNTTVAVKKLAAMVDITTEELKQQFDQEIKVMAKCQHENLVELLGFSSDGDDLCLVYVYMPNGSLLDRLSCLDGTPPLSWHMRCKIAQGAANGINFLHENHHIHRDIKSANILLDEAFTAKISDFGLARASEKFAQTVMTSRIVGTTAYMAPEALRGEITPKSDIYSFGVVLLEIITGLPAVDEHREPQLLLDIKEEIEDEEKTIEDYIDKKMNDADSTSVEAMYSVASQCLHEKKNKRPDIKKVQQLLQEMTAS
Test: RBC HotSpot Kinase Assay, IRAK4
Type: biochemical
Set-up: purchased Reaction Biology (RBC HotSpot Kinase Assay)
attribute_measured: pIC50
Friendly reminder that pIC50 comes from taking -log10 of the concentration in mol/L.

## Task Any idea what pIC50 was measured for c1cc(NC2CC3(CCNC3)C2)nc(-c2cnc3ccc(-c4cnn(C5CNC5)c4)nn23)c1 (centres unmarked) [Compound 44] ?
## Result 5.36

## Task What pIC50 value was documented for this compound, c1cc(NC2CC3(CNC3)C2)nc(-c2cnc3ccc(-c4cnn(C5CNC5)c4)nn23)c1 [Compound 37] ?
## Result 5.36

## Task Please report the recorded pIC50 for COc1cc2ncc(-c3cc(F)cc(N[C@H]4CNC[C@@H]4F)n3)n2nc1C1CC1 [Compound 103] .
## Result 7.80

## Task Query: pIC50; subject: F[C@H]1CNC[C@@H]1Nc1cccc(-c2cnc3ccc(N4CCC4)nn23)n1 [Compound 93]
## Result 7.41

## Task // returns reported pIC50 for input c1cc(NC2CCNC2)nc(-c2cnc3ccc(-c4cnn(C5CCOCC5)c4)nn23)c1 (centres unmarked) [Compound 29]
## Result 5.61

## Task Which pIC50 is listed for FC1(F)CNCC1Nc1cccc(-c2cnc3ccc(-c4cnn(C5CC5)c4)nn23)n1 (centres unmarked) [Compound 22] ?
## Result 7.36

## Task # pIC50 lookup, item Cc1oncc1-c1ccc2ncc(-c3cccc(NC4CC5(CNC5)C4)n3)n2n1 [Compound 36]
## Result 5.57

## Task What does the record list as pIC50 for CO[C@H]1CNC[C@@H]1Nc1cccc(-c2cnc3ccc(C4CC4)nn23)n1 [Compound 74] ?
## Result 6.83
